- Tested on: DDX3X N-IDR (human, UniProt O00571 1-132)
- Sequence (O00571 1-132): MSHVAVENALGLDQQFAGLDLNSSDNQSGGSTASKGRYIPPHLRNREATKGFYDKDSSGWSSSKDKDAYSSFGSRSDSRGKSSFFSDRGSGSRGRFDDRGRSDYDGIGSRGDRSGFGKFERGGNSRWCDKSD
- Test description: ITC; 50 mM KCl; EMSA: 20 mM K-phosphate pH 7.0, 125 mM KCl, 1 mM DTT, 0.005% Tween-20, 10% glycerol (1 mM ATP-Mg for MBP-FL/Core-C), gel at room temperature; ITC: 20 mM K-phosphate pH 7.0, 50 mM KCl, 25 C; NMR: 200 mM KCl (also 120 mM), 10 C, 50 uM
- Recorded conditions: protein: recombinant; tags: His6-SUMO tag cleaved (Ulp1); G4 monomer

# Binder, Unit abbreviation, Kd
records = [
    ("UGUGGGAGGGGCGGGUCUGGGUGC (structured_RNA) [NRAS GQ RNA]", "nM", 1400),
]
